Would you kindly list Kd for each of these binders?
Target: T1, PUF4 RNA-binding domain (Saccharomyces cerevisiae, UniProt P25339 537-888)
T1 sequence: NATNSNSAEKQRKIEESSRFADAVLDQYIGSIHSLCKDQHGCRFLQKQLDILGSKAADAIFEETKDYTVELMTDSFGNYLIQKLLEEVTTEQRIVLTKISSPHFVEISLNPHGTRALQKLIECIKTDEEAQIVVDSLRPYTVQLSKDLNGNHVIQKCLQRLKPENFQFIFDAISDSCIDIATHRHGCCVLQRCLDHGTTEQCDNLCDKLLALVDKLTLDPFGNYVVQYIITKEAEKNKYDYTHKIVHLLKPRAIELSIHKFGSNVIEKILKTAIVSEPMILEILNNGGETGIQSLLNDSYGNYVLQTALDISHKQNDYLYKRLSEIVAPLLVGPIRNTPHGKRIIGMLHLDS
Test: Mg; RNA-MaP; 20 mM Na-HEPES pH 7.4, 30 mM KOAc, 0.75 mM MgCl2, 0.1% Tween-20, 5% glycerol, 0.1 mg/mL BSA, 2 mM DTT; 25 C; 0.0125-409.6 nM protein
Settings: tags: N-His6-TEV cleaved; C-SNAP kept, Cy3B-labelled; label: tethered on chip by stalled RNA polymerase
One number for each entry, in nM.

Here's what some known entries look like.
Binder	Value
UCUCUUUUUAUAAUAUCUCUU (ssRNA) [Ib_S1_P4E.1_K4.1_C4.1_H4.1_[G2T]_A4.1_[T7A]_F4.1_T4.1]	1450
Ic_S2_P4E.1_K4.1_C4.1_H4.1_A4.1_[T5C]_[T7C]_F4.1_[A9T]_T4.1 (ssRNA) RNA: UUUGAUUAAUAUGAUAUCGUUCUUUCUUGUACACUUUUCUUUCUCGAUAUCAUAUUAAUCUUU	2.92
Ie_S4_P5E.1_K5.1_C5.1_H5.1_[+3TCT]_A5.1_F5.1_T5.1 (ssRNA) RNA: UUUGACAACUGAUCGUUCUUUCUUGUUCUAUUAUUAUUCUUUCUCGAUCAGUUGUCUUU	8.87
Ie_S4_P4E.1_K4.1_C4.1_H4.1_A4.1_F4.1_[+8CT]_T4.1 (ssRNA) RNA: UUUGACAACUGAUCGUUCUUUCUUGUAUAUUCUAUUCUUUCUCGAUCAGUUGUCUUU	3.92

Next, consider the following binder.
Briefly, Kd measured for UCUCUUGCUGUAUAUAAUUCUCUU (ssRNA) [Id_ii_S1_P3E.2_K3.1_C3.2_[C-2G]_[T-1C]_H3.1_A3.1_F3.1_T3.2_[T9A]_[A10T]] : 12.4
